- Test system: RG2
- Protocol Details: Uptake in HSV1 thymidine kinase expressing rat RG2TK+ cells
- Format: ADME, cell-based
Entries annotated with measured log10 of Drug uptake
Please be aware that the numbers have been log10-transformed from Drug uptake in µL/min/mg.

Recorded log10 of Drug uptake, per entry:
[[record]]
molecule = "O=c1[nH]c(=O)n([C@@H]2O[C@H](CO)[C@@H](O)[C@@H]2F)cc1CC[18F]"
value_type = "log10 of Drug uptake"
measured_number = 2.46

[[record]]
molecule = "CCCc1cn([C@@H]2O[C@H](CO)[C@@H](O)[C@@H]2[18F])c(=O)[nH]c1=O"
value_type = "log10 of Drug uptake"
measured_number = 1.15

[[record]]
molecule = "O=c1[nH]c(=O)n([C@@H]2O[C@H](CO)[C@@H](O)[C@@H]2[18F])cc1C(F)(F)F"
value_type = "log10 of Drug uptake"
measured_number = 1.71

[[record]]
molecule = "O=c1[nH]c(=O)n([C@@H]2O[C@H](CO)[C@@H](O)[C@@H]2[18F])cc1/C=C/Br"
value_type = "log10 of Drug uptake"
measured_number = 1.54

[[record]]
molecule = "O=c1[nH][14c](=O)n([C@@H]2O[C@H](CO)[C@@H](O)[C@@H]2F)cc1I"
value_type = "log10 of Drug uptake"
measured_number = 2.44


Query (molecule): Nc1nc(=O)c2ncn(CCC(CO)C[18F])c2[nH]1 (configuration not stated) ; field requested: log10 of Drug uptake
1.34

Note, next up: Nc1nc(O)c2ncn(COC(CO)C[18F])c2n1 (configuration not stated)
0.89

---

- Test system: RG2
- Protocol Details: Ratio of uptake in rat RG2TK+ cells to RG2 cells
- Assay type: ADME, cell-based
Entries annotated with measured Ratio
Just the number, please, no unit attached.

Recorded Ratio, per entry:
[[record]]
molecule = "O=c1[nH][14c](=O)n([C@@H]2O[C@H](CO)[C@@H](O)[C@@H]2F)cc1I"
test_target = "RG2"
measured_number = 5.7

[[record]]
molecule = "Nc1nc(=O)c2ncn(CCC(CO)C[18F])c2[nH]1 (stereo not given)"
test_target = "RG2"
measured_number = 6.9

[[record]]
molecule = "Nc1nc(O)c2ncn(COC(CO)C[18F])c2n1 (stereo not given)"
test_target = "RG2"
measured_number = 19

[[record]]
molecule = "O=c1[nH]c(=O)n([C@@H]2O[C@H](CO)[C@@H](O)[C@@H]2[18F])cc1C(F)(F)F"
test_target = "RG2"
measured_number = 13


Query for RG2: what Ratio does the record show for O=c1[nH]c(=O)n([C@@H]2O[C@H](CO)[C@@H](O)[C@@H]2F)cc1CC[18F] ?
550

---

- Tested on: RG2
- Protocol Details: Uptake in rat RG2 cells
- Type: ADME, cell-based
Decide using Drug uptake: a value greater than or equal to 3 µL/min/mg is YES, a smaller one is NO.

Past entries and their recorded results:
[[record]]
molecule = "O=c1[nH]c(=O)n([C@@H]2O[C@H](CO)[C@@H](O)[C@@H]2[18F])cc1/C=C/Br"
label = "NO"

[[record]]
molecule = "Nc1nc(O)c2ncn(COC(CO)C[18F])c2n1 (configuration not stated)"
label = "NO"

[[record]]
molecule = "Nc1nc(=O)c2ncn(CCC(CO)C[18F])c2[nH]1 (configuration not stated)"
label = "YES"

[[record]]
molecule = "O=c1[nH]c(=O)n([C@@H]2O[C@H](CO)[C@@H](O)[C@@H]2F)cc1CC[18F]"
label = "NO"

[[record]]
molecule = "CCCc1cn([C@@H]2O[C@H](CO)[C@@H](O)[C@@H]2[18F])c(=O)[nH]c1=O"
label = "NO"

[[record]]
molecule = "O=c1[nH][14c](=O)n([C@@H]2O[C@H](CO)[C@@H](O)[C@@H]2F)cc1I"
label = "YES"


Please find the next molecule below.
Determine whether measured Drug uptake meets or exceeds 3 µL/min/mg for O=c1[nH]c(=O)n([C@@H]2O[C@H](CO)[C@@H](O)[C@@H]2[18F])cc1C(F)(F)F
YES

---

- Protocol Details: Partition coefficient, log P at pH 7.4
- Type: physicochemical
- Study Conditions: octanol/water
Entries annotated with measured logD

Recorded logD, per entry:
[[record]]
molecular_string = "O=c1[nH]c(=O)n([C@@H]2O[C@H](CO)[C@@H](O)[C@@H]2[18F])cc1C(F)(F)F"
result = 0.03

[[record]]
molecular_string = "O=c1[nH]c(=O)n([C@@H]2O[C@H](CO)[C@@H](O)[C@@H]2[18F])cc1/C=C/Br"
result = 1.02


Query (compound): O=c1[nH][14c](=O)n([C@@H]2O[C@H](CO)[C@@H](O)[C@@H]2F)cc1I ; field requested: logD
-0.1

Note, next up: CCCc1cn([C@@H]2O[C@H](CO)[C@@H](O)[C@@H]2[18F])c(=O)[nH]c1=O
0.5
